Test system: neuPABP (PABPC1L2)
Experiment: EMSA
Conditions: […] (100 nM), 1 h at 30 C, pH not stated
pKd: −log10 of the molar value.
metric: pKd

sequence_string="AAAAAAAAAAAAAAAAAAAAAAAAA [oligo(A)25]" metric=pKd result_number=7.30
